MIC Enterococcus faecalis (ATCC 29212) values, listed per item
Test system: Enterococcus sp.
Assay summary: in vitro antibacterial evaluation, MIC by broth dilution
Format: cell-based
Stated conditions: Enterococcus faecalis (ATCC 29212); broth dilution, 18 hours at 35° C.
Square brackets hold non-standard residues; d marks the D form. Peptide text beside a SMILES is read from it. * marks the point of attachment. ξ: configuration not given here. ξEnduracididine(βξ-OH,4'ξ) = N=C1NCC(C(O)C(N)C(=O)O)N1; X2 = OCC1OC(OC2C(CO)OC(*)C(O)C2O)C(O)C(O)C1O

N=C1NCC(C(O)C2NC(=O)C(Cc3ccc(OC4OC(CO)C(OC5OC(CO)C(O)C(O)C5O)C(O)C4O)cc3)NC(=O)C(Cc3ccccc3)NC(=O)CNC(=O)C(CO)NC(=O)C(C(O)C3CNC(=N)N3)NC2=O)N1 (stereo not drawn) [Example 296] (cyclo(GFY(X2)[ξEnduracididine(βξ-OH,4'ξ)][ξEnduracididine(βξ-OH,4'ξ)]S); configuration not given here)    >128 µg/mL
Cc1cc(C2OCC3OC(OC4C(CO)OC(Oc5ccc(CC6NC(=O)C(C(C)c7ccccc7)NC(=O)CNC(=O)C(CO)NC(=O)C(C(O)C7CNC(=N)N7C7OC(CO)C(O)C(O)C7O)NC(=O)C(C(O)C7CNC(=N)N7)NC6=O)cc5)C(O)C4O)C(O)C(O)C3O2)ccc1[N+](=O)[O-] (stereo not drawn)    32 µg/mL

Let us move to another entry and its MIC Enterococcus faecalis (ATCC 29212).
Challenge: Query for Enterococcus sp.: what MIC Enterococcus faecalis (ATCC 29212) does the record show for COc1ccc(CC2OCC3OC(OC4C(CO)OC(Oc5ccc(CC6NC(=O)C(C(C)c7ccccc7)NC(=O)CNC(=O)C(CO)NC(=O)C(C(O)C7CNC(=N)N7C7OC(CO)C(O)C(O)C7O)NC(=O)C(C(O)C7CNC(=N)N7)NC6=O)cc5)C(O)C4O)C(O)C(O)C3O2)cc1 (stereo not drawn) ?
Response given: 4 µg/mL

---

Test system: Streptococcus sp.
Assay summary: in vitro antibacterial evaluation, MIC by broth dilution
Type: cell-based
Stated conditions: Streptococcus pyogenes (GC 4563); broth dilution, 18 hours at 35° C.
Quantity kind: MIC Streptococcus pyogenes (GC 4563) (µg/mL)
State just the number; it will be interpreted in µg/mL.

CC(c1ccccc1)C1NC(=O)CNC(=O)C(CO)NC(=O)C(C(O)C2CNC(=N)N2C2OC(CO)C(O)C(O)C2O)NC(=O)C(C(O)C2CNC(=N)N2)NC(=O)C(Cc2ccc(OC3OC(CO)C(OC4OC5COC(c6ccc7ccccc7c6)OC5C(O)C4O)C(O)C3O)cc2)NC1=O (stereo not drawn)    1

Challenge: Entry CC(c1ccccc1)C1NC(=O)CNC(=O)C(CO)NC(=O)C(C(O)C2CNC(=N)N2C2OC(CO)C(O)C(O)C2O)NC(=O)C(C(O)C2CNC(=N)N2)NC(=O)C(Cc2ccc(OC3OC(CO)C(OC4OC(CO)C(O)C5OC(c6ccccc6)OC45)C(O)C3O)cc2)NC1=O (single isomer, unassigned) [Example 104b] has what MIC Streptococcus pyogenes (GC 4563)?
Response given: 0.12

Challenge: Further, for Cc1cc(C2OCC3OC(OC4C(CO)OC(Oc5ccc(CC6NC(=O)C(C(C)c7ccccc7)NC(=O)CNC(=O)C(CO)NC(=O)C(C(O)C7CNC(=N)N7C7OC(CO)C(O)C(O)C7O)NC(=O)C(C(O)C7CNC(=N)N7)NC6=O)cc5)C(O)C4O)C(O)C(O)C3O2)ccc1[N+](=O)[O-] (stereo not drawn) ?
Response given: 2

Challenge: Try this compound next: CC(c1ccccc1)C1NC(=O)CNC(=O)C(CO)NC(=O)C(C(O)C2CNC(=N)N2C2OC(CO)C(O)C(O)C2O)NC(=O)C(C(O)C2CNC(=N)N2)NC(=O)C(Cc2ccc(OC3OC(CO)C(OC4OC5COC(c6cccc(Cl)c6)OC5C(O)C4O)C(O)C3O)cc2)NC1=O (stereo not drawn)
Response given: 0.25
